Tested on: SARS-CoV-2
Assay: microbe, parasite or virus in culture
Format: cell-based
Conditions: Severe acute respiratory syndrome coronavirus 2, Vero C1008, Vero E6 cells; IFA; read-out: IC50, inhibition of SARS-CoV-2 infectivity
Readout Label: pIC50
For clarity, pIC50 is expressed as the negative log10 of concentration in mol/L.

According to the records, this compound CNC(=O)c1cccc(-c2ccc3c(N4CCOC[C@@H]4C)nc(N4CCOC[C@@H]4C)nc3n2)c1 displays pIC50 of 7.47

// moving on: another record for pIC50
According to the records, this compound Cn1c(=O)n(-c2ccc(C(C)(C)C#N)cc2)c2c3cc(-c4cnc5ccccc5c4)ccc3ncc21 displays pIC50 of 6.95
